# RP-LC retention time listing for each entry below
assay: gradient 5% acetonitrile 3 min, to 50% in 2 min, to 85% in 15 min, held 3 min, 100 µL/min; conditions: column: Zorbax Extend-C18 2.1 x 50 mm; eluents: water / acetonitrile, 0.1% formic acid

Below: 3 compounds and their reported RP-LC retention time.
{"compound": "Cc1ccc2c(Nc3ccc(CC(=O)O)cc3)c(C(=O)N3CCCC3)cnc2n1", "quantity-measured": "RP-LC retention time", "observed-measurement": "572 s"}
{"compound": "Nc1cc(C2CCN(C(=O)Nc3cccc(Br)c3)CC2)no1", "quantity-measured": "RP-LC retention time", "observed-measurement": "744 s"}
{"compound": "CCCS(=O)(=O)N1CC(F)(F)C[C@H]1c1nc(-c2cccnc2)no1", "quantity-measured": "RP-LC retention time", "observed-measurement": "802 s"}

[in] Supply reported RP-LC retention time belonging to this compound: CCN1C(=O)C(C)(C(=O)NCc2ccccc2OC)Oc2cccnc21 (stereo not given)
[out] 843 s

[in] Supply reported RP-LC retention time belonging to this compound: O=C(CC1CCN(C(=O)NCc2ccccc2)CC1)N1CCCCC1
[out] 703 s

[in] Supply reported RP-LC retention time belonging to this compound: CN1C(=O)c2cc(S(=O)(=O)NCc3ccccc3F)ccc2Oc2cccnc21
[out] 871 s

[in] Supply reported RP-LC retention time belonging to this compound: Clc1cccc(-c2nc(-c3ccc4nncn4c3)no2)c1
[out] 921 s

###

experiment: gradient 5% acetonitrile 3 min, to 50% in 2 min, to 85% in 15 min, held 3 min, 100 µL/min; conditions: column: Zorbax Extend-C18 2.1 x 50 mm; eluents: water / acetonitrile, 0.1% formic acid
quantity-measured: RP-LC retention time (s)
# output: bare number, implied unit s

{"compound": "CC1CCN(c2nc(=O)n(CC(=O)Nc3ccc(C(C)C)cc3)c3ccccc23)CC1", "RP-LC retention time / s": 981}
{"compound": "Cc1ccc(S(=O)(=O)c2ccccc2[N+](=O)[O-])cc1", "RP-LC retention time / s": 874}
{"compound": "CC(C)c1ccc(NC(=O)C2CCCN(c3cc(=O)n(C)c(=O)n3C)C2)cc1 (centres undefined)", "RP-LC retention time / s": 829}

# input for lookup
[in] Supply reported RP-LC retention time belonging to this compound: CC(C)COc1cc(=O)n2c(c1C(=O)NCCCN1CCCCC1)CCCCC2
[out] 584

###

# RP-LC retention time listing for each entry below
test: gradient 5% acetonitrile 3 min, to 50% in 2 min, to 85% in 15 min, held 3 min, 100 µL/min; conditions: column: Zorbax Extend-C18 2.1 x 50 mm; eluents: water / acetonitrile, 0.1% formic acid
# output: bare number, implied unit s

Below: 6 compounds and their reported RP-LC retention time.
{"compound": "CCCN1C(=O)COc2ccc(-c3noc(C4CC(=O)N(c5cccc(Cl)c5)C4)n3)cc21 (centres undefined)", "value-units": "s", "RP-LC retention time": 1080}
{"compound": "COC(=O)c1ccccc1NC(=O)Cn1cnc2c(sc3nc(-c4ccccc4)ccc32)c1=O", "value-units": "s", "RP-LC retention time": 1110}
{"compound": "COc1ccc(-c2nnc(-c3cc(S(=O)(=O)N4CCC(C)CC4)ccc3Cl)o2)cc1", "value-units": "s", "RP-LC retention time": 1160}
{"compound": "CSc1cccc(NC(=O)CN2C(=O)C3CCCCN3c3ccc(C(=O)N4CCCC4)cc32)c1 (centres undefined)", "value-units": "s", "RP-LC retention time": 869}
{"compound": "CCCCNC(=O)C1Cc2ccccc2CN1S(=O)(=O)c1ccccc1 (centres undefined)", "value-units": "s", "RP-LC retention time": 960}
{"compound": "O=C(NC1CCCCC1)C1CCN(c2cncnc2N2CCCCC2)CC1", "value-units": "s", "RP-LC retention time": 672}

[in] Supply reported RP-LC retention time belonging to this compound: O=C(Nc1ccc2c(c1)OCCO2)N1CCCn2nc(-c3ccncc3)cc2C1
[out] 590

[in] Supply reported RP-LC retention time belonging to this compound: Cn1c(=O)c(N2CCN(C(=O)c3cc(F)ccc3F)CC2)nc2cccnc21
[out] 834
